molecular target: CDK9/cyclin K (Homo sapiens); construct: purchased Invitrogen (ThermoFisher) PV4335; assay: TR-FRET Lanthascreen Eu Kinase Binding assay; conditions: in %
Sequence (P50750 whole entry): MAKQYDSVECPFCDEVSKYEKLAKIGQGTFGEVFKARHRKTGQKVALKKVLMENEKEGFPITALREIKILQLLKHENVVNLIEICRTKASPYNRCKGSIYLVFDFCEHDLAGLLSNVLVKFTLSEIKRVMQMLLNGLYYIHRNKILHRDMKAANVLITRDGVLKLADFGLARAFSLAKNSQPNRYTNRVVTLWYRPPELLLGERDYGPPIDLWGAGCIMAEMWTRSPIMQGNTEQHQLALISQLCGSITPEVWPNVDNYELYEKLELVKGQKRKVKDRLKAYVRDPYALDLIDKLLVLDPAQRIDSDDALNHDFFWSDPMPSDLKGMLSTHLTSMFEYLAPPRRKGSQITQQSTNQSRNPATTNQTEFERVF
Sequence (O75909 whole entry partner): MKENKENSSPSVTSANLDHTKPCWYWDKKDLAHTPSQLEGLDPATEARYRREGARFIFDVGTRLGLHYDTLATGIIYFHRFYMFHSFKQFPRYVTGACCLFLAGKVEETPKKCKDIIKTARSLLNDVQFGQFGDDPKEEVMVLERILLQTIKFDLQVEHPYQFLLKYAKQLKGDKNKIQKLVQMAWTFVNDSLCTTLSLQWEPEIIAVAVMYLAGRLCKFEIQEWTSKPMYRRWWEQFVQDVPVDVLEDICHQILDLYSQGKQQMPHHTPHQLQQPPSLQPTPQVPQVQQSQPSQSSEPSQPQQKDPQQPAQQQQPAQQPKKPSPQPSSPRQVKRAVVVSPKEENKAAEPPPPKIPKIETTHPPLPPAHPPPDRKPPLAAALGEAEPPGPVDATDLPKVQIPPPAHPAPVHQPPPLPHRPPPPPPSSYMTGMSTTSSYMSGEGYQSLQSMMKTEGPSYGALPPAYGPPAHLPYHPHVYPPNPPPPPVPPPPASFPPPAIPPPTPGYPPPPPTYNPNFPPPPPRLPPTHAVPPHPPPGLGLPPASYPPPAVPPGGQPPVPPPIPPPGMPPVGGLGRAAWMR
Task for the reader: assign each of the following molecules its reported Max Resp.
Lab note: jot down the number only; don't add units.

Query Max Resp for "CNC(=O)c1ccc(Nc2ncc(C(F)(F)F)c(NCc3nccnc3N(C)[S+](C)(=O)[O-])n2)cc1"
-50.3

Query Max Resp for "COc1ccc2c(NC(=O)Nc3cccc(C(F)(F)F)n3)ccnc2c1"
-64.1

Query Max Resp for "OCCCNc1cc(-c2ccnc(Nc3cccc(Cl)c3)n2)ccn1"
-98.0

Query Max Resp for Nc1ncnc2c1c(I)cn2[C@@H]1O[C@H](CO)[C@H](O)C1O (some centres unmarked)
-99.1

Query Max Resp for "CC(C)[C@H](CO)Nc1nc(Nc2cccc(Cl)c2)c2ncn(C(C)C)c2n1"
-72.7

Query Max Resp for "O=C1NC(=O)C(c2cnc3ccccn23)=C1c1cn2c3c(cc(F)cc13)CN(C(=O)N1CCCCC1)CC2"
-83.9

Query Max Resp for "COc1ccc(CNc2nc(N(CCO)CCO)nc3c2ncn3C(C)C)cc1"
-99.9

Query Max Resp for "CC(C)Oc1cc(Nc2nc(N[C@@H](C)c3ccc(F)cn3)ncc2Cl)n[nH]1"
-97.4
